- Tested on: vancomycin resistant enterococci (VRE) E. faecalis
- assay procedure: Broth microdilution MIC/MBC, VRE E. faecalis
- Format: cell-based
- details: E. faecalis TX0104 HM-201
parameter: MBC (µM)
Give bare numbers, in µM.

I need MBC for every entry listed below, if you could help.
1. O=C(O)[C@H](Cc1ccccc1)N1C(=O)/C(=C/c2cccc(-c3ccc(Cl)c(Cl)c3)c2)SC1=S
2. O=C(O)[C@H](Cc1ccccc1)N1C(=O)/C(=C/c2cccc(Oc3ccc(Cl)c(Cl)c3)c2)SC1=S

1: 4; 2: 8

I need MBC for every entry listed below, if you could help.
1. O=C(O)[C@H](Cc1ccccc1)N1C(=O)/C(=C/c2cccc(-c3ccccc3)c2)SC1=S
2. O=C(O)[C@H](Cc1ccccc1)N1C(=O)/C(=C/c2cccc(Cc3ccc(Cl)c(Cl)c3)c2)SC1=S
3. O=C(O)[C@@H](Cc1ccccc1)N1C(=O)/C(=C/c2cccc(Oc3ccc(F)cc3)c2)SC1=S

1. 16
2. 8
3. 32

I need MBC for every entry listed below, if you could help.
1. O=C(O)[C@@H](Cc1ccccc1)N1C(=O)/C(=C/c2cccc(Cc3ccccc3)c2)SC1=S
2. O=C(O)[C@H](Cc1ccccc1)N1C(=O)/C(=C/c2cccc(OC/C=C/c3ccc(Cl)c(Cl)c3)c2)SC1=S

1: 16; 2: 8

* * *

- Test system: B. licheniformis
- assay procedure: Broth microdilution MIC/MBC, B. licheniformis
- Format: cell-based
- details: Bacillus licheniformis, NRS712; B. licheniformis NRS 712 NR-2499; read-out: MBC
Hi there, I'd appreciate the recorded MBC for every entry that follows.
Give bare numbers, in µM.

{"columns": ["molecule", "experimental result"],
 "data": [
  ["O=C(O)[C@H](Cc1ccccc1)N1C(=O)/C(=C/c2cccc(-c3ccccc3)c2)SC1=S", 8],
  ["O=C(O)[C@H](Cc1ccccc1)N1C(=O)/C(=C/c2cccc(OC/C=C/c3ccc(Cl)c(Cl)c3)c2)SC1=S", 4],
  ["O=C(O)[C@H](Cc1ccccc1)N1C(=O)/C(=C/c2cccc(Cc3ccc(Cl)c(Cl)c3)c2)SC1=S", 4],
  ["O=C(O)[C@@H](Cc1ccccc1)N1C(=O)/C(=C/c2cccc(Cc3ccccc3)c2)SC1=S", 8],
  ["CC(=O)NC[C@H]1CN(c2ccc(N3CCOCC3)c(F)c2)C(=O)O1 [Linezolid, linezolid, reference compound]", 4],
  ["O=C(O)[C@@H](Cc1ccccc1)N1C(=O)/C(=C/c2cccc(Oc3ccc(F)cc3)c2)SC1=S", 16]
]}

I need MBC for every entry listed below, if you could help.
1. O=C(O)[C@H](Cc1ccccc1)N1C(=O)/C(=C/c2cccc(-c3ccc(Cl)c(Cl)c3)c2)SC1=S
2. O=C(O)[C@H](Cc1ccccc1)N1C(=O)/C(=C/c2cccc(Oc3ccc(Cl)c(Cl)c3)c2)SC1=S

1. 4
2. 4

* * *

- Tested on: vancomycin resistant enterococci (VRE) E. faecium
- assay procedure: Broth microdilution MIC/MBC, VRE E. faecium
- Assay type: cell-based
- details: E. faecium E1071 NR-28978; read-out: MIC
parameter: MIC (µM)
One number for each entry, in µM.

{"columns": ["molecule", "MIC, µM"],
 "data": [
  ["CC(=O)NC[C@H]1CN(c2ccc(N3CCOCC3)c(F)c2)C(=O)O1 [Linezolid, linezolid, reference compound]", 2],
  ["O=C(O)[C@H](Cc1ccccc1)N1C(=O)/C(=C/c2cccc(-c3ccccc3)c2)SC1=S [Rh 5]", 16],
  ["O=C(O)[C@@H](Cc1ccccc1)N1C(=O)/C(=C/c2cccc(Cc3ccccc3)c2)SC1=S [Rh 7]", 16]
]}

Here is another molecule to look at.
O=C(O)[C@@H](Cc1ccccc1)N1C(=O)/C(=C/c2cccc(Oc3ccc(F)cc3)c2)SC1=S [Rh 4] yielded MIC of 32
